Origin of values: patent US11279703B2

Documented IC50 across a set of molecules
# test-system: BRD4-BD1 (Homo sapiens (Human))
# assay-info: AlphaLisa bromodomain binding assay, BRD4-BD1
# condition-context: Table 6; read-out: BRD4(1) IC50
# Protocol: An AlphaLisa assay was used to observe bromodomain binding and measure IC50s for the compounds disclosed herein. An AlphaLisa assay is a bead-based assay used to detect interactions between bromodomains and polyacetylated histone peptides. […] Equipment Required • 1. […] Microplate reader (Pherastar) […] The percent inhibition is calculated in the excel analysis template and the IC50 values are subsequently determined using a sigmoidal dose-response curve (variable slope) using GraphPad Prism® 5 software.
Your answer is read as nM, so omit the unit and give the number.

In the examples that follow, each entry is paired with its recorded IC50.
> print(dat)
                                   molecule  recorded.metric  reported.measurement
1  CN1CCN2c3c(F)cc(Nc4ncc5scc(-c6cccc(NS(=O)(=O)C(C)(C)C)c6)c5n4)cc3CC2C1 (stereo not shown)             IC50                  1800
2  Cc1cnc(Nc2ccc(N3CCN(C)CC3)cc2)nc1Nc1cccc(NS(=O)(=O)C(C)(C)C)c1 [drawing 276]             IC50                   164
3  CN1CCN(c2ccc(Nc3ncc4ccn(-c5ccc(F)c(NS(=O)(=O)C(C)(C)C)c5)c4n3)cc2)CC1 [drawing 340]             IC50                   228
4  CC(C)(C)S(=O)(=O)Nc1cccc(-n2ccc3cnc(Nc4ccc(NCCN)cc4)nc32)c1             IC50                   682
5  CN(C)C1CCN(c2ccc(Nc3ncc4ccn(-c5ccc(F)c(NS(=O)(=O)C(C)(C)C)c5)c4n3)cc2F)CC1 [drawing 373]             IC50                   153
6  Cc1cnc(Nc2ccc(N3CCN(C)CC3)cc2)nc1Nc1cccc(NS(=O)(=O)C(C)(C)C)c1 [drawing 226]             IC50                   221

Prompt: Given the molecule "CNC(=O)C1CCN(c2ccc(Nc3ncc4ccn(-c5ccc(F)c(NS(=O)(=O)C(C)(C)C)c5)c4n3)cc2F)CC1" , what is its reported IC50?
Completion: 735
